# Assay Text: yeast display, Sf9 membrane polyspecificity reagent, FACS + sequencing; frameworks hold sequencing errors
Measure Name: polyreactivity (PSR sort gate)

QVQLVESGGGLVQAGGSLRLSCAASGNTFPAYAMGWYRQAPGTGGELVATISWSTGSTNYADSVKGRFTISRDNAKNTVYLQMNSLKPEDTAVYYCNKRYPSDQMDYWGQGTQVTVSS = low polyreactivity
QVQLVESGGGLVQAGGSLRLTCAASGIIFGENARGWYRQAPGKERELVDAINSVGSTYYADSVKGRFTISRDNAKNTVYLQMNSLKPEDTAVYYCAAESWFLRWYRYDYWGQGTQVTVSS = low polyreactivity
QDQLVESGGGLVQAGGSLRLSCAASGFTFDENAMGWYRQAPGINYSGASTYYADSVKGRFTISRDNAKNTVYLQMNSLKPEDTAVYYCAAEVVAQMNYWGQGTQVTVSS = low polyreactivity
QVKLVESGGGLVQAGGSLRLSCAASGSIFLSYAMGWYRQAPGKDRELVAAISGGGGSTYYADSVKGRFTISRDNAKNTVYLQMNSLKPEDTAVYYCAADYYYGDALSPYYPHWDFYYWGQGTQVTVSS = low polyreactivity
QVQLVESGGGLLQAGGSLRLSCAASVRFLCYGWYRQAPGKERELVAAITWSGGSTYYADSVKGRFTISRDNAKNTVYLLMNSLKPEDTAVYYCARYPDSYWYGRKNYYWGQGTQVTVSS = high polyreactivity

[Q] Read the entry QVQLVESGGGLDQAGGSLRLSCAASGFTFWYYAMGWYRQAPGKERYLVATISSSGGSTYYADSVKGRFTISRDTAMNTVYLQMNSLKPEDTAVYYCNADDNPVWEYDYWGQGTLVTVSS and write its reported polyreactivity (PSR sort gate).
[A] low polyreactivity

[Q] Read the entry QVQLVESGGGLVQAGGSLRLSCAASGITFRYYAMGWDRQAPGKERELVAAINRGGDSTYYADSVKGRFTISRDNAKNTVYLQMNSLKPEDTAVYYCAASSYYRGTFYPSYYWGQGTQVTVSS and write its reported polyreactivity (PSR sort gate).
[A] high polyreactivity
